- Target Of Assay: T1, Human CD98, endogenous on HCC38, Molt-4 and Jurkat human cancer cells (human)
- T1 chain: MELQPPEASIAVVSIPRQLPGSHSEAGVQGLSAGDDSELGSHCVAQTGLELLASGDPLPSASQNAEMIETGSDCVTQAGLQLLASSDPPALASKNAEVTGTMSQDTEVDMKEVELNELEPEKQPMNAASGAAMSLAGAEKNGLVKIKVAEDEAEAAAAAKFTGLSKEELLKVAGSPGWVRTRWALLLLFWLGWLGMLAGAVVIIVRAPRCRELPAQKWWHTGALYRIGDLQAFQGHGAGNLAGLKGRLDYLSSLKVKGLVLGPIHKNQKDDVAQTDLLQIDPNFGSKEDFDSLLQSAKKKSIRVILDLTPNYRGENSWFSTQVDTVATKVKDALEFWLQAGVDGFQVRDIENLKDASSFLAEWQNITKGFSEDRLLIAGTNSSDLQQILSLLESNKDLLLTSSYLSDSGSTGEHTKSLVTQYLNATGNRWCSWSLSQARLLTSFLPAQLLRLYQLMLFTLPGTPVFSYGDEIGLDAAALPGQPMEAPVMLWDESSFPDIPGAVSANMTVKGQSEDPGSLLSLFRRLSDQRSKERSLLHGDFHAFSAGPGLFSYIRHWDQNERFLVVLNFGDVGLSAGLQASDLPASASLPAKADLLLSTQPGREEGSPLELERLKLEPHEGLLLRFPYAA
- Protocol: cell-based or functional assay
Each entry below carries its recorded ADC potency, IC50 (nM), HCC38 growth inhibition.
Reply with just the number (in nM).

Look over these answered cases.
Ab3-CZ (Ab3 conjugated to Bcl-xL inhibitor synthon CZ) (antibody, V domains shown) VH: EVKLVESGGGLVQPGNSLRLSCATSGFTFIDYYMSWVRQSPGKALEWLGFIRNKANGYTTEYSASVKGRFTISRDNSQSILYLQMDTLRAEDSATYYCTRDRPAWFVYWGQGTLVTVSA VL: DIVMSQSPSSLAVSVGEKVTMSCKSSQSLLYSSNQKNYLAWYQQKPGQSPKLLIYWASTRESGVPDRFTGSGSGTDFTLTFSSVRAEDLAVYYCQQYYSYPYTFGGGTKLEIK
0.561
Ab13-CZ (Ab13 conjugated to Bcl-xL inhibitor synthon CZ) (antibody, V domains shown) VH: QVQLKESGPGLVQPSQTLSLTCTVSGFSLSSYGVIWVRQPPGKGLEWMGIIWANGNTNYNSALKSRLSISRDTSKSQVYLKMNSLQTEDTATYYCARHYYDGTHYYGYFDYWGQGVMVTVSS VL: DTVMTQTPSSQAVSAGEKVTMSCKSSQSLLYSENKKKYLAWYQQKPGQSPKLLIYWASTRESGVPDRFIGSGSGTDFTLTISSVQAEDLAVYYCQQYYNFPYTFGAGTKLELK
0.787

Query :: Endpoint output: ADC potency, IC50 (nM), HCC38 growth inhibition of Ab6-CZ (Ab6 conjugated to Bcl-xL inhibitor synthon CZ) (antibody, V domains shown) VH: QVQLKESGPGLAQPSQTLSLTCTVSGFSLSTYGVIWLRQPPGKGLEWMGVIWTNGNTNYNSTLKSRLSISRDTSESQVYLQMNSLQTEDTATYYCARHYYDGAYYYGYFDYWGQGVMVTVSS VL: DIVMTQTPSSQAVSAGEKVTMSCKSSQSLLYSENKKNYLAWYQQKPGQSPKLLIYWASTRESGVPDRFIGSGSGTDFTLTISSVQAEDLAVYYCQQYYYFPYTFGAGTKLELK . Value?
Result :: 0.438
